Recorded EC50, one value per entry.
- Target entity: murine CLDN18.2 (mCLDN18.2) (murine) (UniProt P56857)
- Assay procedure: FACS, HEK293-mCLDN18.2 cells
Numbers only here, please. The scale is nM.

Sample records with EC50:
Binder | Unit symbol | EC50
ch-229C9 (antibody, V domains shown, also called chimeric antibody of clone 229C9) VH: DVQLQESGPDLVKPSQSLSLICTVTGYSITSGYSWHWIRQFPGNKLEWMGYIHYSGGTNYNPSLKSRISFTRDTSKNQFFLQLNSVTTEDTATYYCARLERGNSFAYWGQGTLVTVSA VL: DIVMTQSPSSLTVTAGEKVTMSCKSTQSLLNSGNQKNYLTWYQQKPGQPPKLLIYWASTRESGVPDRFTGSGSGTDFTLTISSLQAEDLAVYYCQNDYFYPFTFGSGTKLEIK | nM | 1.19
ch-251H11 (antibody, V domains shown, also called chimeric antibody of clone 251H11) VH: QVQLKQSGAELVRPGASVKLSCKTSGYTFTTFWIHWIKQRSGQGLEWIAKIYPGTGYTYYNEKFKGKATLTADKSSSAAYMQLSSLKSEDSAVYFCAREGYGKGNAVDFWGQGSSVTVSS VL: DIVMTQSPSSLTVTAGEKVTMSCKSSQSLFNSGNQKNYLTWYQQKPGQPPKLLIYWASTRESGVPDRFTGSGSGTDFTLTIDSVQAEDLAVYYCQNDYTYPSTFGGGTNLEIK | nM | 1.01
ch-239E9 (antibody, V domains shown, also called chimeric antibody of clone 239E9) VH: QVQLQQSGPELVRPGVSVKISCKGSSYTFTDYTMHWVKQSHAKSLEWIGFIGVYYGNTNYNQKFKGKATMTVDKSSSTAYMELARLTSEDSAVYYCARIGRGNAMDYWGQGTSVTVSS VL: DIVMTQSPSSLTVTAGEKVTMSCKSSQSLLNSGNQKNYLTWYQQKPGQPPKLLIYWASTRESGVPDRFTGSGSGTDFTLTISSVQAEDLAVYNCQNAYSYPFTFGSGTKLEIK | nM | 1.24

Switching to the query record.
What measured EC50 goes with ch-76D11 (antibody, V domains shown, also called chimeric antibody of clone 76D11) VH: QVQLQQSGAELMKPGASVKLSCKASGYTFTGYWIEWIKQRPGHGLEWIGEILPGSGSIKYNEKFKDKATFTADTSSNTAYMQLSSLTTEDSAIYYCARKGLRGNSFDYWGQGTTLTVSS VL: DIVMTQSPSSLTVTAGEKVTMSCKSSQSLLNSGNQKNYLTWYQQKPGQPPKRLIYWASTRESGVPDRFTGSGSGTDFTLTISSVQAEDLAVYYCQNDYYYPFTFGSGTKLEIK ?
0.702
